Reference source: the supplement of paper PMC6757056

B1: library; a variant is named by its letters at N, in order (parent)
chain: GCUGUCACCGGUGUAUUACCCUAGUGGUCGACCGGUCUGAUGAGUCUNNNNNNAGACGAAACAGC

Variants of: B1
MEASUREMENT_PROTOCOL: normalized RNA/DNA level without ligand (relative to sTRSVctl = 100) (log10 (% of sTRSVctl)); ligand: hypoxanthine (xanthine aptamer); higher = less ribozyme self-cleavage, higher mRNA level
EXPERIMENTAL_SETUP: HEK293T, reporter: mCherry (pCS4076), ligand present: no
Please respond with reported normalized RNA/DNA level without ligand (log10) for every item in the list.
Numbers only.

GCUGUCACCGGUGUAUUACCCUAGUGGUCGACCGGUCUGAUGAGUCUACGGGGAGACGAAACAGC : 1.33

Please state, for each entry, its recorded normalized RNA/DNA level without ligand (log10).
1. GCUGUCACCGGUGUAUUACCCUAGUGGUCGACCGGUCUGAUGAGUCUUCGGCCAGACGAAACAGC
2. GCUGUCACCGGUGUAUUACCCUAGUGGUCGACCGGUCUGAUGAGUCUCGUAUGAGACGAAACAGC
3. GCUGUCACCGGUGUAUUACCCUAGUGGUCGACCGGUCUGAUGAGUCUAGAAGUAGACGAAACAGC
4. GCUGUCACCGGUGUAUUACCCUAGUGGUCGACCGGUCUGAUGAGUCUGCUAUCAGACGAAACAGC
5. GCUGUCACCGGUGUAUUACCCUAGUGGUCGACCGGUCUGAUGAGUCUGGAGACAGACGAAACAGC
6. GCUGUCACCGGUGUAUUACCCUAGUGGUCGACCGGUCUGAUGAGUCUAUUGCGAGACGAAACAGC
7. GCUGUCACCGGUGUAUUACCCUAGUGGUCGACCGGUCUGAUGAGUCUACCGCAAGACGAAACAGC
8. GCUGUCACCGGUGUAUUACCCUAGUGGUCGACCGGUCUGAUGAGUCUAUAGUCAGACGAAACAGC

1.95
1.84
1.51
1.84
1.75
1.41
1.84
1.92
